test system: Mo7e cells which endogenously express c-kit; experiment: Mo7e assay: inhibition of SCF dependent proliferation (MTT); format: cell-based; details: Table 1; SCF stimulated Mo7e cells, 48 hours, MTT
OBSERVED_PROPERTY: IC50 (nM)
Provide the reading as a plain figure in nM.

State its IC50 on Mo7e cells which endogenously express c-kit: Cc1cc2c(cn1)cc(-c1cc(Nc3noc(C(O)C(C)C)n3)ccc1C)c(=O)n2C (centres unmarked) [Compound A64]
118

State its IC50 on Mo7e cells which endogenously express c-kit: Cc1cc2c(cn1)cc(-c1cc(Nc3noc([C@H]4CCCCO4)n3)ccc1C)c(=O)n2C [Compound A99]
100

State its IC50 on Mo7e cells which endogenously express c-kit: Cc1cc2c(cn1)cc(-c1cc(Nc3nnc(-c4ccc(Cl)cc4)[nH]3)ccc1C)c(=O)n2C [Compound C2]
256

State its IC50 on Mo7e cells which endogenously express c-kit: Cc1ccc(Nc2noc(-c3ccccc3)n2)cc1-c1cc2c[n+]([O-])c(C)cc2n(C)c1=O [Compound A86]
216

State its IC50 on Mo7e cells which endogenously express c-kit: Cc1cc2c(cn1)cc(-c1cc(Nc3noc(-c4ccc(C(F)(F)F)nc4)n3)ccc1C)c(=O)n2C [Compound A4]
472

State its IC50 on Mo7e cells which endogenously express c-kit: Cc1ccc(-c2nnc(Nc3ccc(C)c(-c4cc5cnc(C)cc5n(C)c4=O)c3)[nH]2)cc1 [Compound C4]
288

State its IC50 on Mo7e cells which endogenously express c-kit: Cc1cc2c(cn1)cc(-c1cc(Nc3noc(-c4ccc(F)c(F)c4)n3)ccc1C)c(=O)n2C [Compound A62]
126

State its IC50 on Mo7e cells which endogenously express c-kit: Cc1cc2c(cn1)cc(-c1cc(Nc3nnc(C4CCCC4)[nH]3)ccc1C)c(=O)n2C [Compound C1]
120

====

Hi there, I'd appreciate the recorded pIC50 for every entry that follows.
test system: Mo7e cells which endogenously express c-kit; experiment: Mo7e assay: inhibition of SCF dependent proliferation (MTT); type: cell-based; settings: Table 1; SCF stimulated Mo7e cells, 48 hours, MTT
Would you please state pIC50, meaning minus log10 of the concentration in mol/L, as a bare number?

State its pIC50 on Mo7e cells which endogenously express c-kit: Cc1cc2c(cn1)cc(-c1cc(Nc3nnc(C4CCCCC4)[nH]3)ccc1C)c(=O)n2C
6.55

State its pIC50 on Mo7e cells which endogenously express c-kit: Cc1cc2c(cn1)cc(-c1cc(Nc3cc(-c4nccs4)no3)ccc1C)c(=O)n2C
6.95

State its pIC50 on Mo7e cells which endogenously express c-kit: CC(=O)c1ccccc1-c1nc(Nc2ccc(C)c(-c3cc4cnc(C)cc4n(C)c3=O)c2)no1
6.59

State its pIC50 on Mo7e cells which endogenously express c-kit: Cc1cc2c(cn1)cc(-c1cc(Nc3noc(C4(C(F)(F)F)CC4)n3)ccc1C)c(=O)n2C
6.40

State its pIC50 on Mo7e cells which endogenously express c-kit: Cc1cc2c(cn1)cc(-c1cc(Nc3noc(-c4cccc(Cl)c4)n3)ccc1C)c(=O)n2C
6.48

State its pIC50 on Mo7e cells which endogenously express c-kit: Cc1cc2c(cn1)cc(-c1cc(Nc3noc(-c4nccs4)n3)ccc1C)c(=O)n2C
6.69

State its pIC50 on Mo7e cells which endogenously express c-kit: Cc1cc2c(cn1)cc(-c1cc(Nc3noc(C(C)CO)n3)ccc1C)c(=O)n2C (stereo not shown)
6.52

State its pIC50 on Mo7e cells which endogenously express c-kit: Cc1cc2c(cn1)cc(-c1cc(Nc3noc(CC(C)(C)O)n3)ccc1C)c(=O)n2C
6.64

State its pIC50 on Mo7e cells which endogenously express c-kit: Cc1cc2c(cn1)cc(-c1cc(Nc3noc(-c4nc(C)oc4C)n3)ccc1C)c(=O)n2C
6.58

State its pIC50 on Mo7e cells which endogenously express c-kit: Cc1cc2c(cn1)cc(-c1cc(Nc3noc(-c4ccc(O)cc4)n3)ccc1C)c(=O)n2C
6.43

State its pIC50 on Mo7e cells which endogenously express c-kit: Cc1cc2c(cn1)cc(-c1cc(Nc3noc(C4CCO4)n3)ccc1C)c(=O)n2C (stereo not shown)
6.84

State its pIC50 on Mo7e cells which endogenously express c-kit: Cc1cc2c(cn1)cc(-c1cc(Nc3noc(-c4ccc(Cl)cc4)n3)ccc1C)c(=O)n2C
7.89

State its pIC50 on Mo7e cells which endogenously express c-kit: Cc1cc2c(cn1)cc(-c1cc(Nc3noc([C@@H]4CCCO4)n3)ccc1C)c(=O)n2C
7.57

State its pIC50 on Mo7e cells which endogenously express c-kit: Cc1cc2c(cn1)cc(-c1cc(Nc3noc(-c4cccc(Cl)n4)n3)ccc1C)c(=O)n2C
6.48

State its pIC50 on Mo7e cells which endogenously express c-kit: Cc1cc2c(cn1)cc(-c1cc(Nc3noc(C4(O)CC4)n3)ccc1C)c(=O)n2C
6.73

State its pIC50 on Mo7e cells which endogenously express c-kit: Cc1cc2c(cn1)cc(-c1cc(Nc3noc([C@H]4C[C@@](C)(O)C4)n3)ccc1C)c(=O)n2C
6.69
